Would you kindly list MIC Range for each of these compounds?
# Tested on: Klebsiella oxytoca
# testMethodNotes: MIC, CLSI broth microdilution, clinical isolates
# Format: cell-based
# setupConditions: Klebsiella oxytoca (N = 50)

Reported MIC Range for COc1c(N2C[C@@H]3CCCN[C@@H]3C2)c(F)cc2c(=O)c(C(=O)O)cn(C3CC3)c12 [Moxifloxacin] was 0.03 to 8 µg/mL

Reported MIC Range for NC[C@H]1O[C@H](O[C@H]2[C@H](O)[C@@H](O[C@H]3O[C@H](CO)[C@@H](O)[C@H](N)[C@H]3O)[C@H](N)C[C@@H]2N)[C@H](N)C[C@@H]1O [Tobramycin] was 0.25 to 8 µg/mL

Reported MIC Range for COc1c(N2CCNC(C)C2)c(F)cc2c(=O)c(C(=O)O)cn(C3CC3)c12 (stereo not drawn) [Gatifloxacin] was 0.015 to 8 µg/mL

Reported MIC Range for C[C@H]1COc2c(N3CCN(C)CC3)c(F)cc3c(=O)c(C(=O)O)cn1c23 [Levofloxacin] was 0.015 to 8 µg/mL

Reported MIC Range for N[C@@H]1CCCCN(c2c(F)cc3c(=O)c(C(=O)O)cn(C4CC4)c3c2Cl)C1 [Besifloxacin] was 0.06 to 8 µg/mL

Reported MIC Range for CC(C)(O/N=C(\C(=O)N[C@@H]1C(=O)N2C(C(=O)[O-])=C(C[n+]3ccccc3)CS[C@H]12)c1csc(N)n1)C(=O)O [Ceftazidime] was 0.03 to 1 µg/mL
